Molecular target: human aldose reductase (Homo sapiens, UniProt P15121)
Construct: His-tag (cleaved yes); made in house; host or cells: E. coli BL21
Experiment: Inhibition of recombinant human aldose reductase, DL-glyceraldehyde reduction, NADPH at 340 nm
Type: biochemical
Conditions: saturating substrate (10 mM DL-glyceraldehyde); read-out: IC50 value
Description: DL Glyceraldehyde, NADPH, and Bezafibrate (2-[4-[2-(4-chlorobenzamiso)ethyl]phenoxy]-2-methyl-propionic acid) were purchased from Sigma-Aldrich. All other chemicals used were of the highest purity available. Human aldose reductase was recombinantly expressed in E. coli BL21, purified, and used for testing the efficacy of Bezafibrate in regulating aldehyde reduction reaction. […] The purity of the protein at each stage of purification was assessed by SDS PAGE, and staining the gels with Coomassie Blue. […]
Form field: pIC50 (one value per entry).
Give only the number. pIC50 is defined as minus log10 of concentration in molar units.

Consider the following illustrative entries.
{"Molecule": "CC(=O)[C@]1(O)Cc2c(O)c3c(c(O)c2[C@@H](O[C@H]2C[C@H](N)[C@H](O)[C@H](C)O2)C1)C(=O)c1ccccc1C3=O [Idamycin]", "Measured result": 5.25}
{"Molecule": "CC(C)(Oc1ccc(Cl)cc1)C(=O)O [2-4-Chlorophenoxy clofibric acid]", "Measured result": 5.92}
{"Molecule": "Cc1ccc(C)c(OCCCC(C)(C)C(=O)O)c1 [Gemfibrozil]", "Measured result": 5.52}
{"Molecule": "CC(C)(Oc1ccc(CCNC(=O)c2ccc(Cl)cc2)cc1)C(=O)O [Bezafibrate]", "Measured result": 5.42}

# input for lookup
## Task Record lookup: for human aldose reductase (Homo sapiens, UniProt P15121), what pIC50 belongs to COc1cccc2c1C(=O)c1c(O)c3c(c(O)c1C2=O)C[C@@](O)(C(C)=O)C[C@@H]3O[C@H]1C[C@H](N)[C@H](O)[C@H](C)O1 [Daunorubicin] ?
## Result 5.30
